Test: NFkB reporter suppression in cystic fibrosis bronchial cells – cell-based, uHTS hits, panel, cytotoxicity readout, dose response (AID 624344)
Conditions: CF bronchial epithelial cells, PAF-induced NFkB reporter inhibition; with PAF, mean of runs
Recorded pIC50 for the following compounds
Give only the number. pIC50 is defined as minus log10 of concentration in molar units.

Please review the entries below; each comes with its answer.
| Compound | pIC50 |
| --- | --- |
| CC(C)[C@H](CO)Nc1nc(NCc2ccc(S(N)(=O)=O)cc2)c2ncn(C(C)C)c2n1 | 5.78 |
| COc1cc(CCc2ccccc2)c(C(=O)O)c(O)c1C/C=C(/C)CCC=C(C)C | 5.20 |
| Cc1ccc(NC(=O)c2ccccc2NS(=O)(=O)c2ccc(Cl)s2)cc1S(=O)(=O)N1CCOCC1 | 5.47 |
| C=C1C(=O)O[C@@]23[C@H]1CC[C@@H](C)[C@@H]2CC[C@@]1(C)O[C@@H]31 | 5.42 |
| Cc1cc(N2C(=O)C(O)=C(C(=O)c3ccc(C)o3)C2c2cccc(Oc3ccccc3)c2)no1 (stereo not given) | 4.97 |
| c1cncc(-c2ccc3ncnc(NCc4ccc5c(c4)OCO5)c3c2)c1 | 5.19 |
| C[C@H]1C[C@@H](C)C(=O)[C@@H]([C@H](O)CC2CC(=O)NC(=O)C2)C1 | 6.43 |
| O=C(Nc1cccc(S(=O)(=O)N2CCCCC2)c1)Nc1ccc(Cl)cc1Cl | 5.05 |

Fill in reported pIC50 for this entry: Cc1[nH]nc2c1-c1nc3ccccc3nc1C(C)(C)C2 4.98

Fill in reported pIC50 for this entry: COc1ccc2c(c1)c(C(C)=O)c(C)n2-c1ccc(C(C)=O)cc1 5.55
